Readings of pIC50 for the listed compounds
Tested on: MDA-MB-468
assay summary: Antiproliferative activity against human MDA-MB-468 cells assessed as inhibition of cell viability incubated for 72 hrs by CCK-8 assay
Format: functional, cell-based
measurement setup: MDA-MB-468, 72 h
Interpret pIC50 as the negative base-10 log of the concentration measured in mol/L.

Below, 3 compounds whose answers are already recorded.
Prompt line: Enter reported pIC50 observed with MDA-MB-468 for COc1cc(N(C(=O)CCl)c2ccc3c(c2)OCCO3)cc(OC)c1F
Response line: 8.00

Prompt line: Lab request: please report pIC50 under test system MDA-MB-468 for COc1c(Cl)cc(N(C(=O)CBr)c2ccc3c(c2)OCCO3)cc1Cl
Response line: 6.05

Prompt line: Can you look up pIC50 on MDA-MB-468 for COc1ccc(N(C(=O)CCl)c2ccc3scnc3c2)cc1Cl ?
Response line: 6.29

---
Prompt line: Requested read-out pIC50, target or system MDA-MB-468, entry COc1ccc(N(C(=O)CCl)c2ccc3c(c2)OCCO3)cc1Cl
Response line: 6.72

Prompt line: # returns recorded pIC50 (system: MDA-MB-468) for COc1ccc(N(Cc2ccc3c(c2)OCO3)C(=O)CCl)cc1Cl
Response line: 5.95

Prompt line: Hello, I am looking for reported pIC50 with MDA-MB-468 for COc1cc(OC)cc(N(C(=O)CCl)c2ccc3c(c2)OCCO3)c1 . Could you help?
Response line: 7.38

Prompt line: Identify the measured pIC50 of COc1ccc(N(C(=O)CCl)c2ccc3c(c2)CCCC3)cc1Cl for MDA-MB-468.
Response line: 6.25

Prompt line: Param readout= pIC50; system= MDA-MB-468; entry= COc1ccc(N(C(=O)CCl)c2ccc3c(c2)C(=O)CCC3)cc1Cl ; returns value.
Response line: 6.17

Prompt line: Recall the recorded pIC50 for COc1cc(N(C(=O)CBr)c2ccc3c(c2)OCCO3)cc(OC)c1OC with MDA-MB-468 and state it.
Response line: 7.12

Prompt line: GET /values?readout=pIC50&system=MDA-MB-468&item= COc1ccc(N(C(=O)CCl)C(C(=O)NCCc2ccccc2)c2cccs2)cc1Cl (stereo unspecified)
Response line: 6.92

Prompt line: Request: pIC50, test system MDA-MB-468, entry O=C(CCl)N(c1ccc2c(c1)OCCO2)c1ccc2occc2c1
Response line: 6.24
